Experiment: NCI Yeast Anticancer Drug Screen. Data for the mlh1 rad18 strain (AID 175)
Details: S. cerevisiae mlh1 rad18 strain growth inhibition; at 50.0 µM; stronger effect = higher value
The panel holds about 79,000 compounds, 15% with a hit somewhere; the sample as a whole holds those more often.
ASSAY_METRIC: growth inhibition (%)
Unit % implied. Number only.

q: I'd like to know its growth inhibition. The molecule in question is CCCCC(CCCC)c1ccccn1
a: -14.4

q: I'd like to know its growth inhibition. The molecule in question is Oc1ccc2ccccc2c1
a: 20.9

q: I'd like to know its growth inhibition. The molecule in question is CCOC(CNCc1ccc(OC)cc1)OCC
a: 7.6

q: I'd like to know its growth inhibition. The molecule in question is CC(C)(C)c1ccc(-c2cc3nc(-c4ccccc4)cc(=O)n3[nH]2)cc1
a: -0.55

q: I'd like to know its growth inhibition. The molecule in question is COc1ccc2c(c1)CC/C2=N/O
a: 2.1

q: I'd like to know its growth inhibition. The molecule in question is CC1(C)COC(c2ccc(Cl)cc2)OC1
a: 26.1

q: I'd like to know its growth inhibition. The molecule in question is Cc1ccc(S(=O)(=O)c2c(N)c3nccn3c3nc4ccccc4nc23)cc1
a: -88.8

q: I'd like to know its growth inhibition. The molecule in question is CCC/C=C/C=C\C(=O)O[C@@H]1[C@@H](C)[C@]2(O)[C@@H]3C=C(C)C(=O)[C@H]3CC(COC(C)=O)=C[C@H]2[C@@H]2C(C)(C)[C@]12OC(C)=O
a: -26.2

q: I'd like to know its growth inhibition. The molecule in question is CCCC(O)C(C)C(O)CC (configuration not stated)
a: -1.45

q: I'd like to know its growth inhibition. The molecule in question is O=C(O)c1ccc2c(c1)C(=O)c1c(c(O)c3ccccc3c1O)C2=O
a: -8.55

q: I'd like to know its growth inhibition. The molecule in question is OCC1NC(COC2OC(CO)C(O)C(O)C2O)C(O)C(O)C1O (configuration not stated)
a: -6.25

q: I'd like to know its growth inhibition. The molecule in question is CCC(=O)Nc1cc(Cl)ccc1C
a: 26.3

###

Assay: NCI Yeast Anticancer Drug Screen. Data for the mec2-1 strain (AID 157)
Settings: S. cerevisiae mec2-1 strain, at 50.0 µM, stronger effect = higher value
Description: Growth inhibition of yeast strains with defined genetic alterations is measured as a screen for potential anti-cancer activity. Selected strains with alterations in DNA damage repair or cell cycle control were exposed to compounds and growth inhibition was measured relative to vehicle treated controls. The strain used in this assay is mec2-1
This is part of a sample that, as a whole, favours compounds with a hit. Of some 79,000 tested, about 15% had one in any assay.
Assignment: determine reported growth inhibition for the given molecules.
Unit % implied. Number only.

q: I'd like to know its growth inhibition. The molecule in question is O=S(=O)([O-])[O-].O=c1[nH]cnc2[nH]ncc12.O=c1[nH]cnc2[nH]ncc12.[Cu+2]
a: -7.95

q: I'd like to know its growth inhibition. The molecule in question is O=C(O)CCC(C(=O)O)N1C(=O)C2C3CCC(C3)C2C1=O (stereo not given)
a: -33.9

q: I'd like to know its growth inhibition. The molecule in question is O=C(Nc1cccc(C(F)(F)F)c1)C(=O)C(C(=O)c1ccc(Cl)c(Cl)c1)C1OC(=O)c2ccccc21 (stereo not given)
a: 19.2

q: I'd like to know its growth inhibition. The molecule in question is CCOC(=O)CNC(=O)NC
a: 8.15

q: I'd like to know its growth inhibition. The molecule in question is CS(=O)c1ccc(C(F)(F)F)cc1C(=O)O (stereo not given)
a: 9.95

q: I'd like to know its growth inhibition. The molecule in question is Nc1cccc(N)n1.[Cu+2]
a: -12.1

q: I'd like to know its growth inhibition. The molecule in question is N#Cc1ccc(OC(=O)Nc2ccccc2Cl)cc1
a: -8.6

q: I'd like to know its growth inhibition. The molecule in question is CNC(=O)Sc1ccc(C)c([N+](C)(C)C)c1
a: 5.6

q: I'd like to know its growth inhibition. The molecule in question is Cc1nc2ccccc2c(=O)n1C(C)(C)CCl
a: 30.6

q: I'd like to know its growth inhibition. The molecule in question is COc1ccc(COC(=O)Oc2ccc(Cl)cc2)cc1OC
a: 63.3

q: I'd like to know its growth inhibition. The molecule in question is O=P(Nc1ccc(Cl)cc1)(Nc1ccc(Cl)cc1)N1CCCCC1
a: -45.1

q: I'd like to know its growth inhibition. The molecule in question is Cn1c(=O)nc(N)n(NC(=O)CCl)c1=O
a: 10.3

q: I'd like to know its growth inhibition. The molecule in question is CCOc1c(N=Nc2ccccc2[N+](=O)[O-])c(C)nn1C(N)=S
a: -5.95

q: I'd like to know its growth inhibition. The molecule in question is C/C=C/C(=O)Nc1cc(Cl)ccc1C
a: -8.1

q: I'd like to know its growth inhibition. The molecule in question is Nc1nc(-c2ccccc2)c(N=Nc2ccc([N+](=O)[O-])cc2Cl)s1
a: 2.55

q: I'd like to know its growth inhibition. The molecule in question is Cc1ccc(S(=O)(=O)N2CCCCC2)cc1
a: -3.35

q: I'd like to know its growth inhibition. The molecule in question is Oc1cc2cc(-c3ccccc3)[nH]c2c2ccccc12
a: -5.25

q: I'd like to know its growth inhibition. The molecule in question is O=C(O)C1CC2CC(=O)C1C2 (stereo not given)
a: -5.45

q: I'd like to know its growth inhibition. The molecule in question is CCOC1(C)Oc2cc3c(cc2C(c2cc(OC)c(OC)c(OC)c2)C1C)OCO3 (stereo not given)
a: 1.55

q: I'd like to know its growth inhibition. The molecule in question is Nc1nc(Sc2ccc([N+](=O)[O-])c3nonc23)c2ncn(C3OC(CO)C(O)C3O)c2n1 (stereo not given)
a: -11.3

q: I'd like to know its growth inhibition. The molecule in question is CC(=O)C1(C)SC(N(c2ccccc2)c2ccccc2)=NC1=O (stereo not given)
a: -4.4

q: I'd like to know its growth inhibition. The molecule in question is O=C(C[n+]1ccccc1Cl)c1ccc(I)cc1
a: 24.8

q: I'd like to know its growth inhibition. The molecule in question is [N-]=[N+]=C1C(=O)NC(=O)N2C3OC(CO[C@@H]12)C(O)C3O (stereo not given in full)
a: -1.65

q: I'd like to know its growth inhibition. The molecule in question is OC(CC1=NCCS1)(c1ccccc1)c1ccccc1
a: 98.8

q: I'd like to know its growth inhibition. The molecule in question is CCOC(=O)C1Oc2ccccc2O1
a: -14.6
